target: Inadl_3, Q8NI35; experiment: holdup assay; design: key: below the threshold = too weak to quantify, mostly under pKd 3.1 to 4; conditions: plain residues with an end cap or a label only (N-terminal biotin on a linker: ado-ado)
Sequence (Q8NI35 359-469): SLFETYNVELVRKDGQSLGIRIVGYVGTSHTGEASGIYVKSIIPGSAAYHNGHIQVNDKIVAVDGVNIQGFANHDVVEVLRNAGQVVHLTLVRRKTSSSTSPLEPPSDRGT
Assign yes whenever pKd does not fall below 4; assign no whenever it does.

{"columns": ["binder", "answerLabel"],
 "data": [
  ["TKDKVQETQI [LRRC4, Q9HBW1]", "no"]
]}

Query: Record LLQEEWETVM [PTH1R, Q03431] ; criterion: pKd no lower than 4. Met?
Reply: yes

Query: Record FLVTEFNVML [DFNB31, Q9P202] ; criterion: pKd no lower than 4. Met?
Reply: yes

Query: Record PEKVSNTTVV [IGSF5, Q9NSI5] ; criterion: pKd no lower than 4. Met?
Reply: no

Query: Record VCMGDHWFDV [PRKN, O60260] ; criterion: pKd no lower than 4. Met?
Reply: yes

Query: Record HDDYFYHDEL [RCN2, Q14257] ; criterion: pKd no lower than 4. Met?
Reply: no
